For each record, write down the corresponding solubility.
ASSAY_REMARKS: physchem
PARTICULARS: aqueous with cosolvent or surfactant or cyclodextrin, kinetic from dmso stock

                    smiles_repr  endpoint_value
0  c1cc(Cn2ccnc2)nc(Cn2ccnc2)c1        > 200 µM

Query compound follows.
What solubility value was documented for this compound, `c1cc(Cn2cnc3ccccc32)nc(Cn2cnc3ccccc32)c1` ?
> 200 µM

----------
For each record, write down the corresponding pIC50.
Test system: Mycobacterium abscessus
ASSAY_REMARKS: MIC, IC50, IC90 against nontuberculous mycobacteria
Assay type: cell-based
PARTICULARS: Mycobacteroides abscessus
Answers are plain numbers, as −log10 of the molar value.

MOLECULE	TARGET_OR_TEST_SYSTEM	pIC50
O=C(C[n+]1ccn(Cc2cccc(Cn3cc[n+](CC(=O)c4ccc([N+](=O)[O-])cc4)c3)n2)c1)c1ccc([N+](=O)[O-])cc1.[Br-].[Br-]	Mycobacterium abscessus	4.05

# batch size: 3; output pIC50 per entry
1. O=C(C[n+]1cn(Cc2cccc(Cn3c[n+](CC(=O)c4ccc([N+](=O)[O-])cc4)c4ccccc43)n2)c2ccccc21)c1ccc([N+](=O)[O-])cc1.[Br-].[Br-]
2. O=C(C[n+]1cn(Cc2cccc(Cn3c[n+](CC(=O)c4ccccc4)c4ccccc43)n2)c2ccccc21)c1ccccc1.[Br-].[Br-]
3. CO[C@H]1/C=C/O[C@@]2(C)Oc3c(C)c(O)c4c(O)c(c(/C=N/N5CCN(C)CC5)c(O)c4c3C2=O)NC(=O)/C(C)=C\C=C\[C@H](C)[C@H](O)[C@@H](C)[C@@H](O)[C@@H](C)[C@H](OC(C)=O)[C@@H]1C [Rifampicin, reference compound]

1: 4.25; 2: 3.92; 3: 5.68
